Test protocol: Pharmacokinetics after intravenous administration in healthy dogs
Type: in vivo
Condition parameters: beagle, dog, plasma, i.v., 5 mg/kg (n = 3)
Description: The animal protocol using healthy beagle dogs was approved by the Animal Research Committee of the Tottori University (project number: 17-T-3). […] Blood samples were collected at 0, 10, and 30 min, and 1, 3, 6, and 24 h after the end of G-Ce6 injection. […] For fluorescence measurement, plasma was read on a Fluorescence Spectrometer SH-9000Lab (excitation, 405 nm and emission, 665 nm; Hitachi High-Technologies Co., Tokyo, Japan). […]
Endpoint label: Cmax (ng/mL)
Report as a plain number; the unit ng/mL is understood.

Input line: Any idea what Cmax was measured for CCC1=C(C)c2cc3[nH]c(cc4nc(c(CC(=O)OC)c5[nH]c(cc1n2)c(C)c5C(=O)OC)[C@@H](CCC(=O)OC)[C@@H]4C)c(C)c3C(C)OCCCS[C@@H]1O[C@H](CO)[C@@H](O)[C@H](O)[C@H]1O (stereo partly shown) ?
Output line: 47000

###

Test protocol: Pharmacokinetics after intravenous administration in healthy dogs
Assay type: in vivo
Condition parameters: beagle, dog, plasma, i.v., 5 mg/kg (n = 3)
Endpoint label: AUC (ng·h/mL)
Report as a plain number; the unit ng·h/mL is understood.

Input line: Any idea what AUC was measured for CCC1=C(C)c2cc3[nH]c(cc4nc(c(CC(=O)OC)c5[nH]c(cc1n2)c(C)c5C(=O)OC)[C@@H](CCC(=O)OC)[C@@H]4C)c(C)c3C(C)OCCCS[C@@H]1O[C@H](CO)[C@@H](O)[C@H](O)[C@H]1O (stereo partly shown) [G-Ce6] ?
Output line: 59700

###

Test protocol: Pharmacokinetics after intravenous administration in healthy dogs
Format: in vivo
Condition parameters: beagle, dog, plasma, i.v., 20 mg/kg (n = 1)
Description: The animal protocol using healthy beagle dogs was approved by the Animal Research Committee of the Tottori University (project number: 17-T-3). […] Blood samples were collected at 0, 10, and 30 min, and 1, 3, 6, and 24 h after the end of G-Ce6 injection. […] For fluorescence measurement, plasma was read on a Fluorescence Spectrometer SH-9000Lab (excitation, 405 nm and emission, 665 nm; Hitachi High-Technologies Co., Tokyo, Japan). […]
Endpoint label: Cmax (µg/mL)
Report as a plain number; the unit µg/mL is understood.

Input line: Any idea what Cmax was measured for CCC1=C(C)c2cc3[nH]c(cc4nc(c(CC(=O)OC)c5[nH]c(cc1n2)c(C)c5C(=O)OC)[C@@H](CCC(=O)OC)[C@@H]4C)c(C)c3C(C)OCCCS[C@@H]1O[C@H](CO)[C@@H](O)[C@H](O)[C@H]1O (stereo partly shown) ?
Output line: 82

###

Test protocol: Pharmacokinetics after intravenous administration in healthy dogs
Type: in vivo
Condition parameters: beagle, dog, plasma, i.v., 5 mg/kg (n = 3)
Endpoint label: half-life (h)
Report as a plain number; the unit h is understood.

Input line: Any idea what half-life was measured for CCC1=C(C)c2cc3[nH]c(cc4nc(c(CC(=O)OC)c5[nH]c(cc1n2)c(C)c5C(=O)OC)[C@@H](CCC(=O)OC)[C@@H]4C)c(C)c3C(C)OCCCS[C@@H]1O[C@H](CO)[C@@H](O)[C@H](O)[C@H]1O (stereo partly shown) [G-Ce6] ?
Output line: 2.84

###

Test protocol: Pharmacokinetics after intravenous administration in healthy dogs
Assay type: in vivo
Condition parameters: both sexes, beagle, dog, plasma, i.v., 2 mg/kg (n = 6), read-out: Vdss
Endpoint label: Vd (L/kg)
Report as a plain number; the unit L/kg is understood.

Input line: Any idea what Vd was measured for CCC1=C(C)c2cc3[nH]c(cc4nc(c(CC(=O)OC)c5[nH]c(cc1n2)c(C)c5C(=O)OC)[C@@H](CCC(=O)OC)[C@@H]4C)c(C)c3C(C)OCCCS[C@@H]1O[C@H](CO)[C@@H](O)[C@H](O)[C@H]1O (stereo partly shown) [G-Ce6] ?
Output line: 0.529

###

Test protocol: Pharmacokinetics after intravenous administration in healthy dogs
Assay type: in vivo
Condition parameters: both sexes, beagle, dog, plasma, i.v., 2 mg/kg (n = 6)
Endpoint label: clearance

Input line: Any idea what clearance was measured for CCC1=C(C)c2cc3[nH]c(cc4nc(c(CC(=O)OC)c5[nH]c(cc1n2)c(C)c5C(=O)OC)[C@@H](CCC(=O)OC)[C@@H]4C)c(C)c3C(C)OCCCS[C@@H]1O[C@H](CO)[C@@H](O)[C@H](O)[C@H]1O (stereo partly shown) ?
Output line: 2.93 mL/min/kg

###

Test protocol: Pharmacokinetics after intravenous administration in healthy dogs
Type: in vivo
Condition parameters: both sexes, beagle, dog, plasma, i.v., 2 mg/kg (n = 6)
Endpoint label: half-life (h)
Report as a plain number; the unit h is understood.

Input line: Any idea what half-life was measured for CCC1=C(C)c2cc3[nH]c(cc4nc(c(CC(=O)OC)c5[nH]c(cc1n2)c(C)c5C(=O)OC)[C@@H](CCC(=O)OC)[C@@H]4C)c(C)c3C(C)OCCCS[C@@H]1O[C@H](CO)[C@@H](O)[C@H](O)[C@H]1O (stereo partly shown) [G-Ce6] ?
Output line: 3.02

###

Test protocol: Pharmacokinetics after intravenous administration in healthy dogs
Type: in vivo
Condition parameters: beagle, dog, plasma, i.v., 20 mg/kg (n = 1), read-out: Vdss
Endpoint label: Vd (L/kg)
Report as a plain number; the unit L/kg is understood.

Input line: Any idea what Vd was measured for CCC1=C(C)c2cc3[nH]c(cc4nc(c(CC(=O)OC)c5[nH]c(cc1n2)c(C)c5C(=O)OC)[C@@H](CCC(=O)OC)[C@@H]4C)c(C)c3C(C)OCCCS[C@@H]1O[C@H](CO)[C@@H](O)[C@H](O)[C@H]1O (stereo partly shown) ?
Output line: 0.284

###

Test protocol: Pharmacokinetics after intravenous administration in healthy dogs
Assay type: in vivo
Condition parameters: beagle, dog, plasma, i.v., 5 mg/kg (n = 3), read-out: Vdss
Endpoint label: Vd (L/kg)
Report as a plain number; the unit L/kg is understood.

Input line: Any idea what Vd was measured for CCC1=C(C)c2cc3[nH]c(cc4nc(c(CC(=O)OC)c5[nH]c(cc1n2)c(C)c5C(=O)OC)[C@@H](CCC(=O)OC)[C@@H]4C)c(C)c3C(C)OCCCS[C@@H]1O[C@H](CO)[C@@H](O)[C@H](O)[C@H]1O (stereo partly shown) [G-Ce6] ?
Output line: 0.258

###

Test protocol: Pharmacokinetics after intravenous administration in healthy dogs
Assay type: in vivo
Condition parameters: beagle, dog, plasma, i.v., 20 mg/kg (n = 1)
Endpoint label: half-life (h)
Report as a plain number; the unit h is understood.

Input line: Any idea what half-life was measured for CCC1=C(C)c2cc3[nH]c(cc4nc(c(CC(=O)OC)c5[nH]c(cc1n2)c(C)c5C(=O)OC)[C@@H](CCC(=O)OC)[C@@H]4C)c(C)c3C(C)OCCCS[C@@H]1O[C@H](CO)[C@@H](O)[C@H](O)[C@H]1O (stereo partly shown) ?
Output line: 2.51

###

Test protocol: Pharmacokinetics after intravenous administration in healthy dogs
Assay type: in vivo
Condition parameters: beagle, dog, plasma, i.v., 20 mg/kg (n = 1)
Endpoint label: clearance (mL/min/kg)
Report as a plain number; the unit mL/min/kg is understood.

Input line: Any idea what clearance was measured for CCC1=C(C)c2cc3[nH]c(cc4nc(c(CC(=O)OC)c5[nH]c(cc1n2)c(C)c5C(=O)OC)[C@@H](CCC(=O)OC)[C@@H]4C)c(C)c3C(C)OCCCS[C@@H]1O[C@H](CO)[C@@H](O)[C@H](O)[C@H]1O (stereo partly shown) ?
Output line: 1.42
